run.description: Aqueous solubility of the compound measured after 24 hrs by HPLC analysis
Format: physicochemical
measure: solubility at 24 h (µg/mL)
Give the quantity in µg/mL, number only.

COc1c(Br)cccc1N1CC(c2nc3ccccc3n2C)CC1=O (configuration not stated)	467

Next compound, please.
Entry Cc1c(Br)cccc1N1CC(c2nc3ccccc3n2C)CC1=O (configuration not stated) has what solubility at 24 h?
388

====

target.under.test: Enoyl-[acyl-carrier-protein] reductase [NADPH] FabI (Staphylococcus aureus) (UniProt Q6GI75)
run.description: Inhibition of N-terminal his 6 tagged Staphylococcus aureus Fabi (1 to […] residues) expressed in Escherichia coli BL21 at 10 uM incubated for 30 mins in presence of NADPH by fluorescence based microplate reader analysis relative to control
inhibition values by entry
Respond with the bare value in %.

Cc1cccc(N2CC(c3nc4ccccc4n3C)CC2=O)c1Br (stereo unspecified)	92.6

Endpoint output: inhibition of Cn1c(C2CC(=O)N(c3noc4ccccc34)C2)nc2ccccc21 (stereo unspecified) . Value?
11.6

Any idea what inhibition was measured for Cn1c(C2CC(=O)N(c3ccccc3-c3ccccc3)C2)nc2ccccc21 (stereo unspecified) ?
5.8

Can you look up the measured inhibition of Cc1cccc(NC(=O)c2nc3ccccc3n2C)c1C for me?
8.9

Item under review: Cn1c(C2CC(=O)N(c3ccc(O)c(O)c3)C2)nc2ccccc21 (stereo unspecified) . Reported inhibition?
70.4

Report inhibition for Cn1c(C2CC(=O)N(c3ccccc3)C2)nc2ccccc21 (stereo unspecified) please.
56.2

====

Tested on: Staphylococcus aureus
run.description: Antimicrobial activity against methicillin-susceptible Staphylococcus aureus ATCC29213 measured after 24 hrs by CLSI protocol based microdilution method
Type: functional
measure: log10(MIC) (log10 of the value in µg/mL)
Values are log10 of MIC in µg/mL.

Cc1c(Br)cccc1N1CC(c2nc3cc(F)c(F)cc3n2C)CC1=O (stereo unspecified)	1.51
Cc1c(Br)cccc1N1C[C@@H](c2nc3ccccc3n2C)CC1=O	-0.30
Cc1cccc(N2CC(c3nc4ccccc4n3C)CC2=O)c1Cl (stereo unspecified)	0.90
Cn1c(C2CC(=O)N(c3cccc(Br)c3O)C2)nc2ccccc21 (stereo unspecified)	1.20
Cc1c(N2CC(c3nc4ccccc4n3C)CC2=O)cccc1C(F)(F)F (stereo unspecified)	0.60

With those in mind, consider the next molecule.
What does the record list as log10(MIC) for Cn1c(C2CC(=O)N(c3cccc4ccccc34)C2)nc2ccccc21 (stereo unspecified) ?
0.90

====

target.under.test: Enoyl-[acyl-carrier-protein] reductase [NADPH] FabI (Staphylococcus aureus) (UniProt Q6GI75)
Sequence (whole entry): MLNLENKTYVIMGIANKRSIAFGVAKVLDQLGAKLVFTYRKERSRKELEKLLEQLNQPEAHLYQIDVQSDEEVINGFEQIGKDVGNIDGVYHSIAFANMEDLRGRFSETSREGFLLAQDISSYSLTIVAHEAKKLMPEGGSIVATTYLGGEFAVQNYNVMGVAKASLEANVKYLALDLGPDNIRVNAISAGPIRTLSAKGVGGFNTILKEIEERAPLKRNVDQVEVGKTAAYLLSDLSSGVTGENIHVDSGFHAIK
run.description: Inhibition of N-terminal his 6 tagged Staphylococcus aureus Fabi (1 to […] residues) expressed in Escherichia coli BL21 at 1 uM incubated for 30 mins in presence of NADPH by fluorescence based microplate reader analysis relative to control
measure: inhibition (%)
Reply with just the number (in %).

Examples with answers:
Cn1c(C2CC(=O)N(c3cccc(Br)c3Cl)C2)nc2ccccc21 (stereo unspecified)	80.3
Cc1cccc(N2CCC(c3nc4ccccc4n3C)CC2)c1C	2.8
Cn1ccc(N2CC(c3nc4ccccc4n3C)CC2=O)n1 (stereo unspecified)	5.1
Cc1c(Br)cccc1N1CC(c2nc3cc(F)c(F)cc3n2C)CC1=O (stereo unspecified)	3.2

I have this molecule here, Cc1cccc(N2CC(c3nc4ccccc4n3C)CC2=O)c1Cl (stereo unspecified) , and I need its recorded inhibition.
47.3

# lookup: inhibition of Cn1c(C2CC(=O)N(c3ccc(Br)c(Br)c3)C2)nc2ccccc21 (stereo unspecified)
4.8

Fill blank: measured inhibition of the molecule Cn1c(C2CC(=O)N(c3ccc4ncsc4c3)C2)nc2ccccc21 (stereo unspecified) is ____.
4.1

Please give the measured inhibition for this molecule: Cc1c(N2CC(c3nc4ccccc4n3C)CC2=O)cccc1[N+](=O)[O-] (stereo unspecified)
42.8

What value of inhibition has been reported for the following molecule? Cc1cccc(NC(=O)CCc2nc3ccccc3n2C)c1C
4.5

Which inhibition is reported for this molecule? Cc1cccc(NC(=O)CCNC(=O)CCc2nc3ccccc3n2C)c1C
6.9

Which value of inhibition has been reported for Cn1c(C2CC(=O)N(c3cccc(Br)c3OCC(F)(F)F)C2)nc2ccccc21 (stereo unspecified) in the records?
2.1

====

Test system: Staphylococcus aureus
run.description: Antimicrobial activity against […] Staphylococcus aureus USA300 measured after 24 hrs by CLSI protocol based microdilution method
Type: functional
Here the recorded MIC is given for each entry.

Please review the entries below; each comes with its answer.
Cn1c(C(=O)Nc2cccc(C(=O)NCc3ccccc3)c2)nc2ccccc21	> 32 µg/mL
COc1cccc(N2CC(c3nc4ccccc4n3C)CC2=O)c1C (stereo unspecified)	16 µg/mL
Cn1ccc2c(N3CC(c4nc5ccccc5n4C)CC3=O)cccc21 (stereo unspecified)	> 32 µg/mL
Cn1c(C2CC(=O)N(c3ccc(F)c(F)c3)C2)nc2ccccc21 (stereo unspecified)	> 32 µg/mL
Cc1c(N)cccc1N1CC(c2nc3ccccc3n2C)CC1=O (stereo unspecified)	> 32 µg/mL

Please look up its MIC: Cc1cccc(NC(=O)CCc2nc3ccccc3n2C)c1C
> 32 µg/mL

====

concentration at 1 h overview
run.description: Drug concentration in BALB/c mouse plasma at 1200 mg/kg, po measured after 1 hr by LC-MS analysis
Assay type: ADME, organism-based
Form entry: value (µg/mL) — number only.

Cc1c(Br)cccc1N1CC(c2nc3ccccc3n2C)CC1=O (configuration not stated)	72.1

I am curious: what concentration at 1 h value has been reported for COc1c(Br)cccc1N1CC(c2nc3ccccc3n2C)CC1=O (configuration not stated) ?
46.5

====

target.under.test: Enoyl-[acyl-carrier-protein] reductase [NADPH] FabI (Staphylococcus aureus)
run.description: Inhibition of N-terminal his 6 tagged Staphylococcus aureus Fabi (1 to […] residues) expressed in Escherichia coli BL21 at 1 uM incubated for 30 mins in presence of NADPH by fluorescence based microplate reader analysis relative to control
measure: inhibition (%)
Express the result in % but write the number alone.

Below are worked cases with known answers.
Cn1c(C2CC(=O)N(c3cccc(F)c3F)C2)nc2ccccc21 (stereo not given)	35.3
CC(=O)c1ccc(N2CC(c3nc4ccccc4n3C)CC2=O)cc1Cl (stereo not given)	5.5

Next compound, inhibition to be filled in.
Requested read-out inhibition, target or system Enoyl-[acyl-carrier-protein] reductase [NADPH] FabI (Staphylococcus aureus), entry Cn1c(C2CC(=O)N(c3noc4ccccc34)C2)nc2ccccc21 (stereo not given)
2.5

====

Tested on: Staphylococcus aureus
run.description: Antimicrobial activity against […] Staphylococcus aureus USA300 measured after 24 hrs by CLSI protocol based microdilution method
Format: functional
Listing of recorded MIC by entry.

Recorded results for 5 molecules are shown here.
Cn1c(C2CC(=O)N(CCc3ccccc3)C2)nc2ccccc21 (stereo unspecified)	> 32 µg/mL
COc1ccc(N2CC(c3nc4ccccc4n3C)CC2=O)cc1Br (stereo unspecified)	> 32 µg/mL
O=C1CC(c2nc3ccccc3[nH]2)CN1c1cccc(Cl)c1F (stereo unspecified)	> 32 µg/mL
Cn1c(C2CC(=O)N(c3ccc(Cl)cc3)C2)nc2ccccc21 (stereo unspecified)	> 32 µg/mL
Cn1c(CCC(=O)Nc2ccccc2)nc2ccccc21	> 32 µg/mL

Which MIC reading was recorded for the molecule Cn1c(C2CC(=O)N(C3CCCCC3)C2)nc2ccccc21 (stereo unspecified) ?
> 32 µg/mL

Endpoint output: MIC of Cc1cccc(N2CC(c3nc4ccccc4n3C)CC2=O)c1C (stereo unspecified) . Value?
16 µg/mL

Fill in the blank: the reported MIC of Cc1cccc(NC(=O)CCNC(=O)c2nc3ccccc3n2C)c1C is ____.
> 32 µg/mL

Consider the molecule shown here: Cc1cccc(N2CC(c3nc4ccccc4n3C)CC2=O)c1 (stereo unspecified) What is its recorded MIC?
> 32 µg/mL

GET /values?readout=MIC&item= Cc1c(Br)cccc1N1CC(c2nc3ccccc3n2C)CC1=O (stereo unspecified)
1 µg/mL

Requested field: MIC. Item: Cn1c(C2CC(=O)N(c3cccc(Br)c3OCC(F)(F)F)C2)nc2ccccc21 (stereo unspecified)
> 32 µg/mL

====

List of log10(IC50) values.
target.under.test: Enoyl-[acyl-carrier-protein] reductase [NADPH] FabI (Staphylococcus aureus, UniProt Q6GI75)
The base-10 logarithm of IC50, taken with IC50 in nM, is what appears here.

Sample records with log10(IC50):
Cc1cccc(N2CC(c3nc4ccccc4n3C)CC2=O)c1 (stereo unspecified)	3.76
Cn1c(C2CC(=O)N(c3cccc(Br)c3Cl)C2)nc2ccccc21 (stereo unspecified)	2.52
Cc1c(Br)cccc1N1CC(c2nc3cc(F)c(F)cc3n2C)CC1=O (stereo unspecified)	3.72

Next:
// query log10(IC50) value for entry Cn1c(C2CC(=O)N(c3cccc4ccccc34)C2)nc2ccccc21 (stereo unspecified)
3.03
